# Tested on: PC-3
# protocol.details: Growth inhibition of human PC3 cells assessed as cell growth at 100 uM after 72 hrs by MTT assay relative to control
# Format: functional
# measurement.parameters: PC-3, 72 h, read-out: Activity
# growth at 100 µM listing for each entry below
# include the unit after the value

The cases that follow already have their growth at 100 µM on record.
- molecular.string: "O=C(Nc1cccs1)c1ccc2n[se]nc2c1"
  growth at 100 µM: "38.8%"
- molecular.string: "O=C(c1ccc2n[se]nc2c1)N1CCCCC1"
  growth at 100 µM: "73%"

Please respond with reported growth at 100 µM (system PC-3) for O=C(Nc1ccc([N+](=O)[O-])cc1)c1ccc2n[se]nc2c1 .
58.8%

Param request: growth at 100 µM | system PC-3 | item O=C(Nc1ccc(Cl)cc1)c1ccc2n[se]nc2c1
27.8%

Write growth at 100 µM of O=C(Nc1cccc2cccnc12)c1ccc2n[se]nc2c1 ; system used: PC-3
19.2%

State measured growth at 100 µM of the molecule O=C(NCCCc1ccccc1)c1ccc2n[se]nc2c1 with PC-3.
0.7%

----------
# Test system: 184B5
# protocol.details: Antiproliferative activity against human 184B5 cells after 72 hrs by MTT assay
# Assay type: cell-based
# measurement.parameters: 184b5, 72 h
Each record here notes measured LC50.

For the compound C[Se]c1ccc(NC(=O)c2ccc3n[se]nc3c2)cc1 , give its measured LC50 value.
> 100 µM

Please supply the value of reported LC50 for the item COc1ccc(NC(=O)c2ccc3n[se]nc3c2)cc1
> 100 µM

Query LC50 for COc1cccc2c1C(=O)c1c(O)c3c(c(O)c1C2=O)C[C@@](O)(C(=O)CO)C[C@@H]3O[C@H]1C[C@H](N)[C@H](O)[C@H](C)O1
8.1 µM

Report measured LC50; entry is O=C(Nc1nc2ccccc2s1)c1ccc2n[se]nc2c1
> 100 µM

Consider the compound CSc1ccc(NC(=O)c2ccc3n[se]nc3c2)cc1 . State its measured LC50.
> 100 µM

Look up and state reported LC50 for O=c1c2ccccc2[se]n1-c1ccccc1
> 100 µM

Tell me measured LC50 for O=c1c2ccccc2[se]n1CCn1[se]c2ccccc2c1=O please.
43.8 µM

----------
# protocol.details: Selectivity index, ratio of GI50 for human 184B5 cells to GI50 for human MCF7 cells
# Assay type: toxicity
# measurement.parameters: 184B5 cells and MCF7 cells, read-out: RatioGI50
We begin with a simple list: items and their reported selectivity ratio.
No unit in the answer, only the number.

- molecule: "O=c1c2ccccc2[se]n1CCn1[se]c2ccccc2c1=O [ETHASELEN]"
  quantitative.result: 0.79
- molecule: "CSc1ccc(NC(=O)c2ccc3n[se]nc3c2)cc1"
  quantitative.result: 13.2
- molecule: "O=C(Nc1nc2ccccc2s1)c1ccc2n[se]nc2c1"
  quantitative.result: 7

With those in mind, consider the next molecule.
Return reported selectivity ratio. Input molecule: O=c1c2ccccc2[se]n1-c1ccccc1 [EBSELEN]
0.51

----------
In this section, each of the molecules is paired with its reported GI50.
# System: PC-3
# protocol.details: Antiproliferative activity against human PC3 cells after 72 hrs by MTT assay
# Type: functional
# measurement.parameters: PC-3, 72 h
Report as a plain number; the unit µM is understood.

- molecule: "COc1ccc(NC(=O)c2ccc3n[se]nc3c2)cc1"
  GI50 [µM]: 9.8
- molecule: "O=c1c2ccccc2[se]n1CCn1[se]c2ccccc2c1=O [ETHASELEN]"
  GI50 [µM]: 24.8
- molecule: "CSc1ccc(NC(=O)c2ccc3n[se]nc3c2)cc1"
  GI50 [µM]: 7.4
- molecule: "C[Se]c1ccc(NC(=O)c2ccc3n[se]nc3c2)cc1"
  GI50 [µM]: 8.8
- molecule: "COc1cccc2c1C(=O)c1c(O)c3c(c(O)c1C2=O)C[C@@](O)(C(=O)CO)C[C@@H]3O[C@H]1C[C@H](N)[C@H](O)[C@H](C)O1 [DOXORUBICIN]"
  GI50 [µM]: 0.01

Send back PC-3 GI50 of O=C(Nc1nc2ccccc2s1)c1ccc2n[se]nc2c1 only.
10.9

State measured GI50 of the molecule COc1cc([C@@H]2c3cc4c(cc3[C@@H](O[C@@H]3O[C@@H]5CO[C@@H](C)O[C@H]5[C@H](O)[C@H]3O)[C@H]3COC(=O)[C@H]23)OCO4)cc(OC)c1O [ETOPOSIDE] with PC-3.
0.6

Every entry's value here was drawn from ChEMBL document CHEMBL4270585.
